Attribution: patent US20230303681A1

Recorded MFI for the following binders
- target-entity: T1, human TMEM106B (human, UniProt Q9NUM4 2-274)
- T1 construct: Full-length, on transiently transfected HEK293 cells, or natively expressed on HeLa, U251 and A549 cells; also called huTMEM106B; huTMEM
- protocol-summary: FACS HEK+huTMEM, 0.1 ug/ml;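 note: flow cytometry binding of purified mouse IgG antibodies to HEK293 cells transiently expressing TMEM106B, read as median fluorescence intensity with propidium iodide positive dead cells gated out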
Please give only the number in your answer, with no unit.

Example entries begin here.
1) anti-TMEM106B antibody TM-35 (antibody, V domains shown) VH: QVQLQQSGPELVRPGTSVKISCKAPGYTFTRHWMQWVRQRPGQGLEWIGEILPGSNNIYYNEKVKGKATLTVDTSSSTSYMQLSSLTSEDSAVYFCARSLYDYDGVFAYWGQGTLVTVSA VL: DVLMTQIPLSLPVSLGDQASISCRSSQSIVHRNGNTYLEWYLQKPGQSPKLLIYKVSNRFSGVPDRFSGSGSGTDFTLKISRVEAEDLGVYYCFQGSHVPYTFGGGTKLEIK = 22600
2) anti-TMEM106B antibody TM-52 (antibody, V domains shown, mouse IgG from hybridoma) VH: QVQLQQPGAELVKPGASVKLSCKASGYTFTNYWMHWVKQRPGQGLDWIGNIDPSDSETHYNQKFKDKATLTVDKVSSTAYMQLSSLTSEDSAVYYCARRGYYGRSPFAYWGQGTLVTVSA VL: ENVLTQSPAIMSASPGEKVTMTCSASSSVSYMHWYQQKSNTSPKLWIYDTSKLASGVPGRFSGSGSGNSYSLTISSAEAEDVATYYCFQGSGYPLTFGAGTKLELK = 1940

Now consider a different binder.
Lab note: measured MFI of anti-TMEM106B antibody TM-21 (antibody, V domains shown) VH: EVQLVESGGGLVKPGGSLKLSCAASGFTFSNYAMSWVRETPEKRLEWVAFISDGGGYIYYADNVKDRFTISRDNAKNNLYLQMRHLKSEDTAMYYCARDGGTGFTYWGQGTLVTVSV VL: DIVMTQAAFSNPVTLGTSASISCRSSKSLLHSNGITYLFWYLQKPGQSPQLLIYQMSNLASGVPDRFSSSGSGTDFTLRISRVEAEDVGVYYCVQNLELPYTFGGGTKLEIK was 15600
